- TEST_SUMMARY: soluble fraction after stress (log2 fold change); higher = more stays soluble; pooled small domains, quantitative proteomics;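 note: 20 min heating vs room temperature control held 20 min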
- PROTOCOL_CONDITIONS: stress: 75 degC
READOUT_LABEL: soluble fraction (log2)
Field format: numeric only.

The cases that follow already have their soluble fraction (log2) on record.
* HMIDVNLVQRGKTLHLRRRVPMRYSSVERREYVSISLKTDSEAEARRKAGAAWDQMIAAWEARLA | -0.382
* HMNSKKRQAILESLRSVTDHPTAEMIYNRLKPEYPDLSLGTVYRNLAMFLEEGQVISVGTVDGQERYDAR | -0.564
* HMETLKEMDSKGAINASEVNVREGAGTSSSKMYSLSKGASVDVTGIKGDWYRVHTSKGTGYVLAKYVTLVS | -0.29
* HMSEFLTIVRAVYSGLSRRKVAAMHKVSRNTVSLYLRQARDQGWLTLEDLEKLDDLTVSQGVS | -2.08
* HMVPVVGTTIPHEFIGKFGSARVMLKPAVEGSGVIAGGSARAVLELAGYKDIKTKVLGTNNPRNVVYATMN | 0.238
* HMQPMIQIHTLANHAPVALHIKRNTQRNIIIRARDASSLNLSIPKWFSPAQLQNWLRDNEATLIRILQQAP | -3.6

Return the recorded soluble fraction (log2) value; entry: `HMKFPPASDIRRMRKAIDVTQTELAKQSGVSQSTIAKIERGRISASYDTVVKLFETLDEMAK`
-0.405

Provide soluble fraction (log2) value for the following sequence: `HMNFKNMIDSLSGILFKKDPSAAIIDIGGVRLKVFITVGSYEQLPAKGEQVEILTYLHVKEDILNLYG`
-1.85

Recall and state the measured soluble fraction (log2) for `HMTDWNTVEKETLSAIQKVLSGQASWIDLSPADHSIRHMQHEMVQQAGLISQSYGKEPMRRIRIYQNP` .
-0.039

Supply recorded soluble fraction (log2) for `HMKIQEVDYSTFLNMLNEKSIAQVEIQDNQIAFNSNQEGNKQIYVTGRIEEDTELVNRLQAAGVQFSRV` here.
0.0484

Provide soluble fraction (log2) value for the following sequence: `HMDVADITGTRKAAILLLTMDEELSKELLKEFERHEIEAIGKEIANIKYIPENIVKQVHSEFLKNINKS`
-0.282

Please indicate soluble fraction (log2) recorded for `HMNADAPWSPFSPGFTGPMNRPVIGLVTKADLANPQRISLVESWLVQAGAQKVFVTSALENTGVDEMFIFL`
-0.152

Supply soluble fraction (log2) value. Item: `HMDNPNVMAQVKSLLASKGLSEQEVKERLKAKGLNIDAMSDAEIAQNRSVIEQTIAELEAEKKKAG`
0.205

---

- TEST_SUMMARY: soluble fraction after stress (log2 fold change); higher = more stays soluble; pooled small domains, quantitative proteomics
- PROTOCOL_CONDITIONS: stress: 75 degC
soluble fraction (log2) values by entry
Respond with the number and no other words.

- HMDLIFQKGDLVFSTEHNQRGIFYEYLEQGQAKISIEKQFFVVAARRLQLLTKREVLYPAGYDLDQLFV: -2.21
- HMENNIILNYVKDNLNITEKDAKDLIELLGSDYYHIKNETNKIAAFLDGQPYSFEKIKNLISIDKEY: 0.0409
- HMTKLTTDERSVYLHIQNKPGVSASSIREALGYKKSKLTSILAQLLEVHKIIDTEGTGKSLKYIL: 0.0994
- HMSKEEAIQAMKEGKKVTHRFFSSDEWMTIENGFLLLEDGVRISLEDFFNFRSDSLWDNGYELYNPH: -0.628
- HMNAVYAEERRAYILAALEKRGTVHSYELAEQMGVSRETIRRDIMELSNRGLLVKTHGGAIST: -1.45

Query soluble fraction (log2) for `HMGSIMIIVLKENAPQQAAEKLMKEIRAKGLQIDVSKGTRKTVLGLVGDTSVIDMEHVQGYDYVDKVLRV`
-1.11

Read the entry `HMTFAPTAIPSLTRPMEELMSWSFTPNEAFILSRINGLWDVRSIAKISPFPEGEVLRVFEKLHDGGLIRW` and write its reported soluble fraction (log2).
-3.6

Kindly indicate its recorded soluble fraction (log2). Item: `HMIVEIVPSALHGERVDRIVAFILDVSRSVASGLVERGAVHVDGSVETSGKVRLVEGQEVSVDPSQVPG`
-0.69

Specify reported soluble fraction (log2) for the sequence shown: `HMSSEDTQSRDRARKELSNEMSRIMKRYGLDYQPRDNADDIMNRLKAAGADENTLAYVQEKLK`
-0.0442

Fill in soluble fraction (log2) for record `HMAGPRRRLLDAAIDRAAERGLGDLSLRALAEELGTSHRMLSHHFGSKDGLWLAIVEEVERRQ`
-1.08

Return value of soluble fraction (log2) for input `HMTKSIDFDFREDGVYIKADKDVTIVDIVTKIDLRRIQSVDLTKIKQMLEIGSLDNWIKIAEPQMEK` , no commentary.
-2

Please indicate soluble fraction (log2) recorded for `HMSNSGFVKNNGKTEFYDASGRQAKSSWINISGKWYYFDLNGTMVTGWQRISNKWYYFLEDGSK`
-0.0724

Please report soluble fraction (log2) for the following sequence: `HMAPKSALKIIEQISNNPRATMTDLANLTGYSRRWVAQTIKRLQEENIIKRIGSDKSGYWEIIG`
-0.807

Indicate its recorded soluble fraction (log2); the sequence in question is `HMAKLTPDQQELRAIRIELQMSQPDFADAININVPRLSSYEYGRTAGVPTSIMEAARELKRSMSR`
-0.848

For the sequence `HMPSPTPEQVLKAFTDAAMQKNTVEELKQAFAKAWKMLEGTPEQHKAQDVYNIRRDELEGAA` , report soluble fraction (log2).
0.376

---

- TEST_SUMMARY: soluble fraction after stress (log2 fold change); higher = more stays soluble; pooled small domains, quantitative proteomics
- PROTOCOL_CONDITIONS: stress: 75 degC
# soluble fraction (log2) values compiled below
Output spec: single numeric token, no unit.

Below are worked cases with known answers.
* HMADLKVGFVHRAGSVLERELDDVLEALEMYRSALAIDPSHKPSLDALTRISQLADYREQAAEILEPLPR | -0.767
* HMSKFSDTLVYLRKRAGFSQQELADKMEVSRSLVGMYESGQRMPSYEMLEALADIFNVNIDFLTGH | -1.28
* HMPLTKKLETLFSLFPKYEKELKKKGVTRIHVWANYKEEYPDGIGRSQFIHYYSFWKKQVSP | -0.154
* HMTKDYVVIYEGLAQTEAVEILGKLQEMGVSAKVDHNDSILVLKDEEDQIRMALATEGYPKS | 0.158

// fetch soluble fraction (log2) given entry `HMNMMESNLFAVYDNDDIVKTLRQGAMEIDSLIRLMGKSSAEVLEKLTTMELQGIITRSGNIIALNN`
-0.427

---

- TEST_SUMMARY: soluble fraction after stress (log2 fold change); higher = more stays soluble; pooled small domains, quantitative proteomics
- PROTOCOL_CONDITIONS: stress: 75 degC
Class t: soluble fraction (log2) at least -0.8. Class f: soluble fraction (log2) below -0.8.

These solved cases illustrate the format of a correct answer.
- HMTKKEFLDILTESLAGNVPASEIEENIRYYKDYIENGEESEEKALEQLGDPHLIARTIIDSFIA: t
- HMGDITALMPGKVIQIIVKEGQEIKVGDPLIVIESMKMENTISSEVNGTIKSINIQIDDNVQFDQVLFTV: f
- HMDSSITLMRMYIPKGHNWENKLISDVSMPTNSLALMIKRNGTTIIPKGDTMILAKDTLILSVPSYEPS: f

Does soluble fraction (log2) meet or surpass -0.8 for `HMEGIAYDINTAPEHIDLKAEDMMATFNIGKTALWRWVKQKILPPPYEYRSQAAHWTIGQIRDWKTA` ?
t

Entry `HMEHAETDTRERILVVAERLFRQLGYQKTTVADIAKELRMSPANVYRFFDSKKSIHEGVARTL` : is its soluble fraction (log2) no less than -0.8?
f

Tell me whether soluble fraction (log2) is at least -0.8 here: `HMTKAILTANDVRNGDIVFWTADQRWSTSIDDAAIGYGKDDTDQLADAGKQAEAANTVVGAYLIALR`
t

Test whether the sequence `HMIINKFERRKEIQIQFNNQERIKFKDFFLNLSKENIIVSFLILLELVRESLIDFSGTNENDIEFFIK` records soluble fraction (log2) of -0.8 or higher.
f

Record `HMKEVKAPMPGMVLRVEVAPGQEVQEGDPLLVLEAMKMENNLKSPASGTIKSVHVEAGKAVEKGAVLVVF` ; criterion: soluble fraction (log2) no lower than -0.8. Met?
t

Textbook exercise: given the entry `HMVSDSAELSAFVADVIKENAQAVADYKGGKTNVFGWLMGQIIKKSGGKATPAAAAALLKAELEK` , state whether its soluble fraction (log2) is greater than or equal to -0.8.
t

Hi team, for `HMTDDFAGRFNELLIHNQETAVTAATRLEVSPAVITKWRQGKSIPSGEYIKRIVETYHVSADYLLGVIDTP` , is the recorded soluble fraction (log2) at or above -0.8?
f

Hi, just wondering whether `HMSIGLEGFVGKLGISTSDLRPSGWGEFDAKKLFVVTEGEFVDRKEKIEILSVDGNRILVRKIS` shows soluble fraction (log2) of -0.8 or higher.
f

Does the reported soluble fraction (log2) for `HMEEPEELYRVKILIYNLLVRNGPGILYTRLRRADYPGEYGIYEEKNGYGKISATLSEWISLNTEYVQRLD` fall at or above the -0.8 mark?
f

Assess whether reported soluble fraction (log2) for `HMSDEAGKVLQLLRENGGYLPYNDRSDPEDIYAFFSMSKKTFKMTAGNLYKQKKIIFTNTGIKLTE` sits at -0.8 or higher.
f

Test whether the sequence `HMLHNEFINDRIQSAINNLSEHFKIVIILRDIQELSYEEISNIVEVPLGTIKSRINRARIQLQAELLDL` records soluble fraction (log2) of -0.8 or higher.
t

Hello, the source for this data is the domain aggregation screens of Martell et al. (2025), in case you need it.
